System: Saccharomyces cerevisiae
Assay: protein stability index of tFT-peptide fusion (C-terminal peptide) (PSI (0-1 scale)); higher = more stable (slower turnover);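 also: PSI is a weighted mean of sequencing reads over stability bins, variants kept only with over 10 reads, mCherry proximal and sfGFP distal, peptide attached via GGGS linker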
Condition set: genetic background: cdc53-1; temperature: 37 C
Listing of recorded protein stability index by entry.
Write the number on its own, no unit after it.

Worked cases, protein stability index given:
VYCTFLFAYTLP 0.591
PTAGFFGLLVLV 0.402
WQVPYQRLAILF 0.656
GFIRVRHLRSLC 0.658
LFPLLCLLLPSL 0.664

Enter reported protein stability index observed with Saccharomyces cerevisiae for GRWAFFTWLRWS
0.674

Follow-up item: VGFIVCFFFSFG
0.456

Follow-up item: GLCGVVVGCWVR
0.417

Follow-up item: PPTHDSPVWSPS
0.721

Follow-up item: SLSFLRPLLLIF
0.0385

Follow-up item: DYARAWRTEVVC
0.448

* * *

Test system: Saccharomyces cerevisiae
Assay: protein stability index of tFT-peptide fusion (C-terminal peptide) (PSI (0-1 scale)); higher = more stable (slower turnover)
Condition set: genetic background: wild type; temperature: 30 C
Measured metric: protein stability index
Write the number on its own, no unit after it.

Worked cases, protein stability index given:
SPRPPSLPYAPP 0.701
DVLESPVLYPTN 0.709
VLPRPLPALPPL 0.683
GGFHWCPSASRG 0.711
FFPFFLSFSPPF 0.708
RKGNHAHEPSCI 0.686
PPILHPPPDIPG 0.701
SRTLLRVSHLSL 0.699
VRVEGQCWMGRI 0.679
PTTAVNLPQGGT 0.68

# lookup: protein stability index of SLDLALLSPFFG
0.679

Follow-up item: NKHYIQSHTDPD
0.698

Follow-up item: ERRPTYFFHDHE
0.693

Follow-up item: ELFGSGERRVVV
0.68

Follow-up item: RFVTLLSDFFLL
0.681

Follow-up item: CVPAPCGRASCR
0.698

Follow-up item: KLSIWRADKDLE
0.688

Follow-up item: GKAIKRPIGIRG
0.683

* * *

Test system: Saccharomyces cerevisiae
Assay: protein stability index of tFT-peptide fusion (C-terminal peptide) (PSI (0-1 scale)); higher = more stable (slower turnover)
Condition set: genetic background: wild type; temperature: 30 C
Listing of recorded protein stability index by entry.
Write the number on its own, no unit after it.

Worked cases, protein stability index given:
PSTHPPTLPRPC 0.712
SINPRVYFVDCQ 0.689
GGRSGVSGVVAG 0.702
PAACLSLPPPPS 0.706
VGSRGWGRWGVA 0.693

# lookup: protein stability index of GTRQWPARSDVV
0.692

Follow-up item: GSSGPCRSHVLG
0.694

Follow-up item: SPRPHRHLPFRP
0.709

Follow-up item: GSGRGRETYIAK
0.679

Follow-up item: VDSYTGGFDLSW
0.681

Follow-up item: DGGGGGGAPRVR
0.715

Follow-up item: NTVLPTPTMSPP
0.702

* * *

System: Saccharomyces cerevisiae
Assay: protein stability index of tFT-peptide fusion (C-terminal peptide) (PSI (0-1 scale)); higher = more stable (slower turnover)
Condition set: genetic background: wild type; temperature: 30 C
Listing of recorded protein stability index by entry.
Write the number on its own, no unit after it.

Worked cases, protein stability index given:
GSQLFESVVVRV 0.679
KRGRGPQFCDLY 0.693
SVGGLAALLCGL 0.682
VTKRSKKNPTNN 0.691
KLKDRRKNTEEI 0.696
VNLSNLRPCPTR 0.707
PLPPPPIPLAPP 0.708
WAGGSGRRIGCR 0.712

# lookup: protein stability index of RGGGVVRGCSGG
0.679

Follow-up item: LHLRPPHPPLPS
0.717

Follow-up item: SLLLSRPLSTSH
0.695

Follow-up item: PKYKKKNNKKKT
0.709

Follow-up item: GTVLSVARGWCV
0.692
